assayNotes: qHTS assay to identify small molecule antagonists of the androgen receptor (AR) signaling pathway using the MDA cell line - cell viability counter screen (AID 743041; also: nearly all actives have a fitted effect of over 45% in size)
conditionContext: MDA-kb2 viability, CellTiter-Fluor, 16 h, cells co-treated with R1881 androgen agonist; series mostly up to 70.3 µM
Inconclusive results are not listed. Activity calls are given as the source filed them. Calls follow the shape of the dose curve; as a rule, active = well fitted cell-killing curve with a large enough effect in the repeat runs; inconclusive = weak or mixed curves, or effect the other way; inactive = flat fitted curve, though single readings scatter.
quantity: viability change, negative = cytotoxic

INSERT INTO measurements (compound, valueobserved) VALUES
  ('CCc1ccc(O)c(OC)c1', 'inactive'),
  ('O=C(O)c1ccccc1OP(=O)(O)O', 'inactive'),
  ('COC(C)(C)CCCC(C)CC=O (stereo not given)', 'inactive'),
  ('COC(=O)c1ccc(C)cc1C1=NC(C)(C(C)C)C(=O)N1 (stereo not given)', 'inactive'),
  ('Cc1cc2c(cc1S(N)(=O)=O)S(=O)(=O)CCC2', 'inactive'),
  ('NC(=O)c1ccc(N)cc1', 'inactive'),
  ('O=C(O)Cc1ccc(CCNS(=O)(=O)c2ccc(Cl)cc2)cc1', 'inactive'),
  ('CC(C)CNCC(C)C', 'inactive'),
  ('CCOC(=O)c1cccc(N)c1', 'inactive'),
  ('CC(C)(c1ccc(O)cc1)c1ccc(O)cc1', 'inactive'),
  ('COC(=O)CC(C)=O', 'inactive'),
  ('COc1cc(C(=O)N2CCCCCCC2)cc(OC)c1OC', 'inactive'),
  ('CN1CC(=O)NC1=N', 'inactive'),
  ('CCOC(C)(C)C', 'inactive'),
  ('C=COCC1CCC(CO)CC1 (stereo not given)', 'inactive');

* * *

assayNotes: qHTS assay to identify small molecule agonists or antagonists of the thyroid stimulating hormone receptor (TSHR) signaling pathway - wild type cell line counter screen (AID 1259384)
conditionContext: HEK293 wild type, cAMP HTRF counter-screen; series mostly up to 92.4 µM
Records with an inconclusive call do not appear. The source made the active and inactive calls. Calls follow the shape of the full dose curve.
quantity: cAMP activity change

INSERT INTO results (molecule, quantity, valueobserved) VALUES
  ('O=c1n(CCO)c(=O)n(CCO)c(=O)n1CCO', 'cAMP activity change', 'inactive'),
  ('Cc1cc2c(cc1S(N)(=O)=O)S(=O)(=O)CCC2', 'cAMP activity change', 'inactive'),
  ('O=C(O)Cc1ccc(CCNS(=O)(=O)c2ccc(Cl)cc2)cc1', 'cAMP activity change', 'inactive'),
  ('CCOC(=O)[C@H](CCc1ccccc1)N[C@@H](C)C(=O)N1[C@H](C(=O)O)C[C@@H]2CCC[C@@H]21', 'cAMP activity change', 'inactive'),
  ('CCCCOCCOCCOCc1cc2c(cc1CCC)OCO2', 'cAMP activity change', 'inactive'),
  ('CC(C)NCCCC1(C(N)=O)c2ccccc2-c2ccccc21', 'cAMP activity change', 'inactive'),
  ('CC(C)CNCC(C)C', 'cAMP activity change', 'inactive'),
  ('CCc1ccc(O)c(OC)c1', 'cAMP activity change', 'inactive'),
  ('CC(C)c1cc2c(cc1S(=O)(=O)O)[C@@]1(C)CCC[C@@](C)(C(=O)O)[C@@H]1CC2', 'cAMP activity change', 'inactive'),
  ('C=COCC1CCC(CO)CC1 (configuration not stated)', 'cAMP activity change', 'inactive'),
  ('CC(=O)CC(C)C', 'cAMP activity change', 'inactive'),
  ('N[C@H]1CN(c2c(F)cc3c(=O)c(C(=O)O)cn(C4C[C@H]4F)c3c2Cl)CC12CC2 (some centres not stated)', 'cAMP activity change', 'inactive');
